# test target: T1, mesothelin-Fc recombinant protein (human, UniProt Q13421 296-580, limits assumed)
# T1 construct: construct not described; also called Meso-Fc; not shown: Fc part
# T1 sequence (Q13421 other isoform, or with tags, fused parts or gaps limits assumed): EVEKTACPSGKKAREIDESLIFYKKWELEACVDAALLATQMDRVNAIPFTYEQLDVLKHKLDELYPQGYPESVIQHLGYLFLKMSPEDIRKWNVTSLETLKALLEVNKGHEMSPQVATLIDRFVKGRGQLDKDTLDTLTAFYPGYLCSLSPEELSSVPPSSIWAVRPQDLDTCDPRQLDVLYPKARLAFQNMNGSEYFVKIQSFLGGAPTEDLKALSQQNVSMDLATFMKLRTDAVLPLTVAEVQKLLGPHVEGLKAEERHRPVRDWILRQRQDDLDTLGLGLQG
# protocol description: flow cytometry, T cells with CAR mRNA, mesothelin-Fc + PE-anti-IgG-Fc; Control 0.97
measure name: percent of cells in the gate (%)
Numbers only, in %.

binder="anti-mesothelin scFv-M22 (scFv, On mRNA-electroporated T cells as CAR) scFv: QSALTQPASVSGSPGQSITLSCTGTRRDIGGYEYVSWYQQHPGKAPKLLIFSVNNRPSGVSHRFSGSKSGNTASLTISGLQAEDEAAYFCSSYSSRDTLVLFGGGTKLTVLGGGGSGGGGSGGGGSQVQLVQSGAEVKKPGSSVKVSCKASGGTFSSYAISWVRQAPGQGLEWMGGIIPIFGTANYAQKFQGRVTITADESTSTAYMELSSLRSEDTAVYYCASGRSGSYGLYWGQGTLVTVSS" measure_name="percent of cells in the gate" unit_name=% value_measured=80
binder="anti-mesothelin scFv-M24 (scFv, On mRNA-electroporated T cells as CAR) scFv: QPVLTQPPSASGTPGQRVTISCSGSSSNIGSNYVYWYQQFPGTAPKLLIYMNNQRPSGVPDRFSGSKSGTSASLAISGLRSEDEADYYCAARDDSLSGYVTFGGGTKLTVLGGGGSGGGGSGGGGSEVHLVESGGGLVQPGGSLRLSCAASGFTFSSYAMSWVRQAPGKGLEWVSAISGSGGSTYYADSVKGRFTISRDNSKNTLYLQMNSLKTEDTAVYYCTRGVATFDYWGQGTLVTVSS" measure_name="percent of cells in the gate" unit_name=% value_measured=93.6

// moving on: another record for percent of cells in the gate
For the binder anti-mesothelin scFv-M31 (scFv, On mRNA-electroporated T cells as CAR) scFv: QSALTQPPSASGSPGQSVTISCTGTSSDIGGYNSVSWYQQHPGKAPKLIIYGVSRRPSGVPDRFSGSKSANTASLTVSGLQAVDEADYYCSSYGGSNNLLFGGGTKLTVLGGGGSGGGGSGGGGSEVHLVESGGGLAQPGGSLRLSCAASGFSFSSSWMAWVRQAPGKGLEWVANIKQDGSSQYYVDSVKGRFTISRDNAKNSLSLQMNSLRAEDTAVYYCARDIWYSIDYWGQGTLVTVSS , what percent of cells in the gate is on record?
67.9

Hello, the source for this data is patent US20250381223A1, in case you need it.
